test: yeast display, Sf9 membrane polyspecificity reagent, FACS + sequencing; frameworks hold sequencing errors
Readout kind: polyreactivity (PSR sort gate)

Sequence chain	polyreactivity (PSR sort gate)
QVQLVESGGGLVQAGGSLRVSCAASGRTFGIYAMGWYRQAPGKEREFVAAISWSGTSTHYADSVKGRFTISRDNAKNTFYLQMNSLKPEDTAVYYCATRRSHYGKYDYWGQGTQVTVSS	high polyreactivity
QVQLVESGGGLVQAGGSLRLSCAASISSINAMGWYRQAPGKERELVAAIRWSGSSTYYADSVKGRFTISRDNAKNTVYLQMNSLKPEDTAVYYCAADTTTGDRGFDYWGQGTQVTVSS	high polyreactivity
QVQLVESGGGLVQAGGSLRLSCAASGGIVRLYGMGWDRQAPGKEMEFVAAISSGGGRTYYADSVKGRFTLSRDNAKNTVYLQMNSLKPEDTAVYYCNAELNWYYYIHLDYWGQGTQVTVSS	low polyreactivity
QVQLVESGGGLVQAGGSLRLSCAASGSTLYKYAMGWYRQSPGKERELVAAISWSGSSTYYADSVKGRFTISRDNAKNTVYLQMNSLKPVDTAVYYCAAYPRPYIGYTDVYVWYEFDYWGQGTQVTVSS	low polyreactivity
QVQLVESGGGLVQAGGSLRLSCAASGLIFNIYAMGWYRQAPGKARELVATIRYSGGSTNYADSVKGRFTISRDNAKNTVYLQMNSLKPEVTAVYYCNAGYYPTGYDYWGQGTQVTVSW	low polyreactivity

Ask | Could you please provide reported polyreactivity (PSR sort gate) for QVQLVESGGGLVQAGGSLRLSCAASGRIFDKYTMGWYRQAPGTERELVAAISKSGSGTFYADSVKGRFTISRDNAKNTVYLQMNSLKPEDTAVYYCARVYTVGTGRSWRLDYWGQGTQVTVSS ? Thanks!
Reply | high polyreactivity

Ask | Please report polyreactivity (PSR sort gate) for the following sequence: QVQLVESGGGLVQAGGSLRLSCAASGSTLPTNAMGWYRQAPGKERELVASNDQSGGSTYADSVKGRFTISRDNAKNTVYLQMNSLKPEDTAVYYCNARDSLRYYTYYFEYYRVGYEYWGQGTQVTVSS
Reply | high polyreactivity

Ask | Determine its reported polyreactivity (PSR sort gate): QVQLVESGGGLVQAGGRLRLSCAASGSTFFIYAMRCFRQAPGKERELVAAISSRGGRTYYADSVKGRFTISRDNAKNTVYLQMNSLKPEDTAVYYCYFLIYSKGQAFDYWGQGTQVSVSS
Reply | high polyreactivity

Ask | Please give measured polyreactivity (PSR sort gate) of the following entry: QVQLVESGGGLVQAGGSLRLSCAASGLTLQRYTMGWYRQAPGKERELVAAISRSGGGTYYADSVKGRFTISRDNAKNTVYLQMNSLKPEDTAVYYCNKVRGAVPWFDMDYWGQGTQVTVSS
Reply | high polyreactivity

Ask | Retrieve polyreactivity (PSR sort gate) measured for QVQLVESGGGLVKAGGSLRLSCAASGRTFGYNAMGWYRQAPGKEREFVAAISWSGGRTYYADSVKGRFTISRDNAKNTVYLQMNSLKPEDTAVYYCAAAAPHLSAKMDYWGQGTQVTVSS and print it.
Reply | low polyreactivity

Ask | Tell me its polyreactivity (PSR sort gate) given QVQLVESGGGLVQAGGSLRLSCAASGIFGWYAMGWYRQAPGKEREFVATINWSGGRTYYADSVKGRFTISRDNAKNTVYLQMNSLKPEDTAVYYCAAENYASEYDYWGQGTQVTVSS as the entry.
Reply | low polyreactivity

Ask | Supply reported polyreactivity (PSR sort gate) belonging to this sequence: QVQLVESGGGLVQAGGSLRLSCAASGIIFGGYAMGWYRQAPGKERELVADISGISSNTYYADSVKGRFTISRDNAKNTVYLQMNSLKPEDTAVYYCAADLTAWWAPVIFYYWGQGTQVTVSS
Reply | high polyreactivity

Origin of the recorded values: the nanobody polyreactivity screen of Harvey et al. (2022)
